Origin of measurements: PubChem BioAssay AID1159580

- assay_summary: chemical genetic growth profiling, strain panel (AID 1159580);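 further: tested at 20 µM; growth read once vehicle control cultures reached saturation at 30 °C; 1 = growth at the plate median or of vehicle wells; lower values mean less growth of the strain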
- assay_conditions: S. cerevisiae deletion strains, growth OD, locus YPL078C, strain atp4, hits give low values
The campaign covered roughly 5,500 compounds. About 2,000 (36%) were called active. Roughly 18% stayed inconclusive and do not appear here. Some of the results follow.
Each entry below carries its reported normalized growth.

// known answers, use as guide
O=C(O)c1ccc2c(c1)OCO2: 0.995 (inactive)
COS(C)(=O)=O: 1.01 (inactive)
Oc1ccc(/C=C/c2cc(O)cc(O)c2)cc1: 0.994 (inactive)

Attention now turns to another entry.
## Task Sample N[C@@H](CCC(=O)N[C@@H](CCSC(CC(=O)O)C(=O)O)C(=O)NCC(=O)O)C(=O)O (some centres undefined) — what was its normalized growth?
## Result 0.986 (inactive)
